Each entry below lists one item and its recorded MIC value.
Tested on: M. catarrhalis ATCC 23246
assay protocol: MIC, standard broth dilution method in microtitre
Assay type: cell-based
test parameters: Moraxella catarrhalis, ATCC23246
readout: MIC

entry smiles: CC[C@H]1OC(=O)[C@H](C)[C@@H](O[C@H]2C[C@@](C)(OC)[C@@H](OCCCN(C)CCSc3ccc4c(c3)c(=O)c(C(=O)O)cn4CC)[C@H](C)O2)[C@H](C)[C@@H](O[C@@H]2O[C@H](C)C[C@H](N(C)C)[C@H]2O)[C@](C)(OC)C[C@@H](C)C(=O)[C@@H](C)[C@H]2NC(=O)O[C@@]21C
readout: MIC
result: ≤ 4 mg/L

entry smiles: CC[C@H]1OC(=O)[C@H](C)[C@@H](O[C@H]2C[C@@](C)(OC)[C@@H](OCCCN(C)CCNc3nc4c(cc3F)c(=O)c(C(=O)O)cn4CC)[C@H](C)O2)[C@H](C)[C@@H](O[C@@H]2O[C@H](C)C[C@H](N(C)C)[C@H]2O)[C@](C)(OC)C[C@@H](C)C(=O)[C@@H](C)[C@H]2NC(=O)O[C@@]21C
readout: MIC
result: ≤ 4 mg/L
